Below, each entry is listed alongside its reported combination Emax.
Test system: SNU-449 (Hepatocellular Carcinoma)
Assay: combination Emax (second highest fraction inhibited in the dose matrix, 72 h); higher = more inhibition; extreme values may be limits of the assay
measured_parameter: combination Emax

compound	quantitative_result
Cc1nc(Nc2ncc(C(=O)Nc3c(C)cccc3Cl)s2)cc(N2CCN(CCO)CC2)n1 [Dasatinib] + CC(=O)Nc1cccc(-n2c(=O)n(C3CC3)c(=O)c3c(Nc4ccc(I)cc4F)n(C)c(=O)c(C)c32)c1 [Trametinib] (first compound max 2 µM, 7x7, partner max 1 µM)	0.691
CN(CCO)CC[C@H](CSc1ccccc1)Nc1ccc(S(=O)(=O)NC(=O)c2ccc(N3CCC([C@@H](O)c4ccccc4-c4ccc(Cl)cc4)CC3)cc2)cc1S(=O)(=O)C(F)(F)F [AZD4320] + C[C@@H]1COCCN1C2=NC(=NC(=C2)C3(CC3)[S@](=N)(=O)C)C4=C5C=CNC5=NC=C4 [AZD6738] (first compound max 1 µM, 7x7, partner max 10 µM)	0.19
CC1(C)CCC(CN2CCN(c3ccc(C(=O)NS(=O)(=O)c4ccc(NCC5CCOCC5)c([N+](=O)[O-])c4)c(Oc4cnc5[nH]ccc5c4)c3)CC2)=C(c2ccc(Cl)cc2)C1 [Venetoclax] + CN(C)CCCOc1ccc(-c2ccc3ncc4c(c3c2)n(C2CCOCC2)c(=O)n4C)cn1 [AZD0156] (first compound max 1 µM, 7x7, partner max 1 µM)	0.243
C[C@@H]1COCCN1c1cc(C2([S@](C)(=N)=O)CC2)nc(-c2ccnc3[nH]ccc23)n1 [AZD6738] + C1CC(C1)(C(=O)[O-])C(=O)[O-].N.N.[Pt+2] [Carboplatin] (first compound max 10 µM, 7x7, partner max 10 µM)	0.227
COc1nnc2ccc(N3CCC(c4ccc(OCCN5CCN(C)C(=O)[C@H]5C)cc4)CC3)nn12 [AZD5153] + C[C@@H]1COCCN1C2=NC(=NC(=C2)C3(CC3)[S@](=N)(=O)C)C4=C5C=CNC5=NC=C4 [AZD6738] (first compound max 1 µM, 7x7, partner max 10 µM)	0.166
C[C@@H]1COCCN1c1cc(C2([S@](C)(=N)=O)CC2)nc(-c2ccnc3[nH]ccc23)n1 [AZD6738] + O=C(c1cc(Cc2n[nH]c(=O)c3ccccc23)ccc1F)N1CCN(C(=O)C2CC2)CC1 [Olaparib] (first compound max 10 µM, 7x7, partner max 10 µM)	0.234

###

Tested on: NCI-H524 (Small Cell Lung Carcinoma)
Experiment: Bliss excess, mean over the matrix (fraction); higher = more synergy
Reported Bliss excess by item:
measured_parameter: Bliss excess

compound	result
CN(CCO)CC[C@H](CSc1ccccc1)Nc1ccc(S(=O)(=O)NC(=O)c2ccc(N3CCC([C@@H](O)c4ccccc4-c4ccc(Cl)cc4)CC3)cc2)cc1S(=O)(=O)C(F)(F)F [AZD4320] + C=CCn1c(=O)c2cnc(Nc3ccc(N4CCN(C)CC4)cc3)nc2n1-c1cccc(C(C)(C)O)n1 [AZD1775] (first compound max 1 µM, partner max 1 µM)	0.055
C[C@@H](c1ccc2nccn2c1)n1nnc2ncc(-c3cnn(C)c3)nc21 [Savolitinib] + Cc1c2c(nn1C)CSCc1cc(n(C)n1)CSc1cc(c3ccccc3c1)OCCCc1c(C(=O)O)n(C)c3c-2c(Cl)ccc13 [AZD5991] (first compound max 1 µM, 7x7, partner max 1 µM)	-0.0115
COc1nnc2ccc(N3CCC(c4ccc(OCCN5CCN(C)C(=O)[C@H]5C)cc4)CC3)nn12 [AZD5153] + Cc1c2c(nn1C)CSCc1cc(n(C)n1)CSc1cc(c3ccccc3c1)OCCCc1c(C(=O)O)n(C)c3c-2c(Cl)ccc13 [AZD5991] (first compound max 1 µM, 7x7, partner max 1 µM)	0.0723

###

System: MHH-CALL-2 (B-Lymphoblastic Leukemia)
Experiment: Bliss excess, mean over the matrix (fraction); higher = more synergy
Listed below: Bliss excess values for each entry.
measured_parameter: Bliss excess

compound	quantitative_result
CC1(C)CCC(CN2CCN(c3ccc(C(=O)NS(=O)(=O)c4ccc(NCC5CCOCC5)c([N+](=O)[O-])c4)c(Oc4cnc5[nH]ccc5c4)c3)CC2)=C(c2ccc(Cl)cc2)C1 [Venetoclax] + CN(C)CCCOc1ccc(-c2ccc3ncc4c(c3c2)n(C2CCOCC2)c(=O)n4C)cn1 [AZD0156] (first compound max 1 µM, 7x7, partner max 1 µM)	0.0128
NC1(C(=O)N[C@@H](CCO)c2ccc(Cl)cc2)CCN(c2ncnc3[nH]ccc23)CC1 [Capivasertib] + Cn1cnc2c(F)c(Nc3ccc(Br)cc3Cl)c(C(=O)NOCCO)cc21 [Selumetinib] (first compound max 10 µM, 7x7, partner max 10 µM)	0.156
Cc1c2c(nn1C)CSCc1cc(n(C)n1)CSc1cc(c3ccccc3c1)OCCCc1c(C(=O)O)n(C)c3c-2c(Cl)ccc13 [AZD5991] + Cn1cnc2c(F)c(Nc3ccc(Br)cc3Cl)c(C(=O)NOCCO)cc21 [Selumetinib] (first compound max 1 µM, 7x7, partner max 3 µM)	0.111

###

# combination Emax annotations
Test system: GAMG (Glioblastoma)
Test: combination Emax (second highest fraction inhibited in the dose matrix, 72 h); higher = more inhibition; extreme values may be limits of the assay

compound	combination Emax
N#Cc1cnc(Nc2cc(NC[C@H]3CNCCO3)c(C(F)(F)F)cn2)cn1 [SRA737] + CCc1c2c(nc3ccc(O)cc13)-c1cc3c(c(=O)n1C2)COC(=O)[C@]3(O)CC [SN-38] (first compound max 10 µM, 7x7, partner max 0.3 µM)	0.878
C[C@@H]1COCCN1c1cc(C2([S@](C)(=N)=O)CC2)nc(-c2ccnc3[nH]ccc23)n1 [AZD6738] + Nc1ccn([C@@H]2O[C@H](CO)[C@@H](O)C2(F)F)c(=O)n1 [Gemcitabine] (first compound max 10 µM, 7x7, partner max 0.3 µM)	0.87
CCN(CCO)CCCOc1ccc2c(Nc3cc(CC(=O)Nc4cccc(F)c4)[nH]n3)ncnc2c1 [AZD2811] + C=CCn1c(=O)c2cnc(Nc3ccc(N4CCN(C)CC4)cc3)nc2n1-c1cccc(C(C)(C)O)n1 [AZD1775] (first compound max 1 µM, partner max 1 µM)	0.417
C[C@@H](Oc1cc(-c2cnn(C3CCNCC3)c2)cnc1N)c1c(Cl)ccc(F)c1Cl [Crizotinib] + CC1=C(C(=CC=C1)Cl)NC(=O)C2=CN=C(S2)NC3=CC(=NC(=N3)C)N4CCN(CC4)CCO [Dasatinib] (first compound max 10 µM, 7x7, partner max 2 µM)	0.929
Cn1cnc2c(F)c(Nc3ccc(Br)cc3Cl)c(C(=O)NOCCO)cc21 [Selumetinib] + CC(C)n1c(=O)n(C)c2cnc3cc(F)c(-c4ccc(OCCCN5CCCCC5)nc4)cc3c21 [AZD1390] (first compound max 10 µM, 7x7, partner max 0.3 µM)	0.151

###

System: NCI-H209 (Small Cell Lung Carcinoma)
Experiment: Bliss excess, mean over the matrix (fraction); higher = more synergy
This section presents molecules with their documented Bliss excess values.

molecule	target_or_test_system	Bliss excess
COc1nnc2ccc(N3CCC(c4ccc(OCCN5CCN(C)C(=O)[C@H]5C)cc4)CC3)nn12 [AZD5153] + Cc1c2c(nn1C)CSCc1cc(n(C)n1)CSc1cc(c3ccccc3c1)OCCCc1c(C(=O)O)n(C)c3c-2c(Cl)ccc13 [AZD5991] (first compound max 1 µM, 7x7, partner max 1 µM)	NCI-H209 (Small Cell Lung Carcinoma)	0.0546
CN(CCO)CC[C@H](CSc1ccccc1)Nc1ccc(S(=O)(=O)NC(=O)c2ccc(N3CCC([C@@H](O)c4ccccc4-c4ccc(Cl)cc4)CC3)cc2)cc1S(=O)(=O)C(F)(F)F [AZD4320] + C1CN(CCC1(C(=O)N[C@@H](CCO)C2=CC=C(C=C2)Cl)N)C3=NC=NC4=C3C=CN4 [Capivasertib] (first compound max 1 µM, 7x7, partner max 3 µM)	NCI-H209 (Small Cell Lung Carcinoma)	-0.0057
CC1(C)CCC(CN2CCN(c3ccc(C(=O)NS(=O)(=O)c4ccc(NCC5CCOCC5)c([N+](=O)[O-])c4)c(Oc4cnc5[nH]ccc5c4)c3)CC2)=C(c2ccc(Cl)cc2)C1 [Venetoclax] + CN(C)CCCOc1ccc(-c2ccc3ncc4c(c3c2)n(C2CCOCC2)c(=O)n4C)cn1 [AZD0156] (first compound max 1 µM, 7x7, partner max 1 µM)	NCI-H209 (Small Cell Lung Carcinoma)	0.0423
Cc1c2c(nn1C)CSCc1cc(n(C)n1)CSc1cc(c3ccccc3c1)OCCCc1c(C(=O)O)n(C)c3c-2c(Cl)ccc13 [AZD5991] + C1CN(CCC1(C(=O)N[C@@H](CCO)C2=CC=C(C=C2)Cl)N)C3=NC=NC4=C3C=CN4 [Capivasertib] (first compound max 1 µM, 7x7, partner max 3 µM)	NCI-H209 (Small Cell Lung Carcinoma)	0.0273

###

The following compounds are listed with their measured Bliss excess values.
Test system: L-428 (Hodgkin's Lymphoma)
Experiment: Bliss excess, mean over the matrix (fraction); higher = more synergy
measured_parameter: Bliss excess

compound	quantitative_result
COc1nnc2ccc(N3CCC(c4ccc(OCCN5CCN(C)C(=O)[C@H]5C)cc4)CC3)nn12 [AZD5153] + C=CCn1c(=O)c2cnc(Nc3ccc(N4CCN(C)CC4)cc3)nc2n1-c1cccc(C(C)(C)O)n1 [AZD1775] (first compound max 1 µM, partner max 1 µM)	-0.0411
Cc1cc2ncnn2cc1Nc1ncc2c(n1)n(C1CCOCC1)c(=O)n2C [AZD7648] + C=CCn1c(=O)c2cnc(Nc3ccc(N4CCN(C)CC4)cc3)nc2n1-c1cccc(C(C)(C)O)n1 [AZD1775] (first compound max 10 µM, partner max 1 µM)	0.0144
NC1(C(=O)N[C@@H](CCO)c2ccc(Cl)cc2)CCN(c2ncnc3[nH]ccc23)CC1 [Capivasertib] + COc1nnc2ccc(N3CCC(c4ccc(OCCN5CCN(C)C(=O)[C@H]5C)cc4)CC3)nn12 [AZD5153] (first compound max 10 µM, 7x7, partner max 1 µM)	-0.0239
CCc1c2c(nc3ccc(O)cc13)-c1cc3c(c(=O)n1C2)COC(=O)[C@]3(O)CC [SN-38] + O=C(c1cc(Cc2n[nH]c(=O)c3ccccc23)ccc1F)N1CCN(C(=O)C2CC2)CC1 [Olaparib] (first compound max 0.3 µM, 7x7, partner max 10 µM)	0.0367
